# System: Mus musculus
# experimentalDetails: Time-dependent effect on 8-OH-DPAT-induced hypothermia (change in body temperature) after 30 min, in mice at 5 mg/kg dose
# Format: functional
// reported Temperature change per item
# number only, unit °C dropped from output

A selection of reference data follows.
compound	unitsSymbol	Temperature change
COc1ccccc1N1CCN(CCC(=O)c2ccsc2)CC1	°C	-2.18
Oc1ccccc1N1CCN(CCC(O)c2csc3ccccc23)CC1 (stereo not drawn)	°C	-2.2
COc1ccccc1N1CCN(CC/C(=N\O)c2csc3ccccc23)CC1	°C	-2.99
COc1ccccc1N1CCN(CC/C(=N\O)c2ccc(C)s2)CC1	°C	-1.31

Problem: Field request: Temperature change | item: COc1ccccc1N1CCN(CCC(O)c2csc3ccccc23)CC1 (stereo not drawn)
Result: -2.5

Problem: Which Temperature change is reported for this compound? COc1ccccc1N1CCN(CCC(O)c2cc(C)sc2C)CC1 (stereo not drawn)
Result: -1.86

Problem: Can you share its Temperature change? I mean this compound: Oc1ccccc1N1CCN(CCC(O)c2ccc3ccccc3c2)CC1 (stereo not drawn)
Result: -2.41
